System: MDA-MB-231 breast
experiment notes: NCI tumour cell line growth inhibition, 48 h
test readout: TGI (µM)

O=C1c2ccccc2-c2c1c1ccccc1c(=O)n2CCCNCCn1c2c(c3ccccc3c1=O)C(=O)c1ccccc1-2 : 9.25
O=Cc1cc(C(=O)OCc2ccccc2)n(S(=O)(=O)c2ccccc2)c1 : 78.1
CN(CCCNC(=O)c1cn(C)c2c1Cc1ccccc1-2)CCCNC(=O)c1cn(C)c2c1Cc1ccccc1-2 : 27.4
Cc1cc(Nc2cc(N3CCN(C)CC3)nc(/C=C/c3ccccc3)n2)n[nH]1 : 9.95
Cn1cc(-c2cnn3c(N)c(Br)c(C4CCCNC4)nc23)cn1 (configuration not stated) : 40
c1ccc(CNCCN(CCNCc2ccccn2)Cc2ccc3ccccc3c2)nc1 : 3.81
COC(C)(C)/C=C/c1[nH]c2ccccc2c1CC(=O)NCCc1cn(C(c2ccccc2)(c2ccccc2)c2ccccc2)cn1 : 15
Nc1nc(/C=C\c2ccccc2)nc(N2CCN(c3ccccc3)CC2)n1 : 53.4
CC(=O)N1N=C(c2ccc(Nc3nc(Nc4ccc(F)cc4)nc(Nc4ccc(F)cc4)n3)cc2)CC1c1ccc(N(C)C)cc1 (configuration not stated) : 29.7

---

Below: a set of entries, each annotated with reported TGI.
Test system: M19-MEL melanoma
experiment notes: NCI tumour cell line growth inhibition, 48 h
test readout: TGI

COC(=O)[C@@]12CC(C(C)C)[C@H]3CC(C(=O)C=C1OC)[C@H]32 (some centres not stated) : > 100 µM
O=C(/C=C\c1cccc2ccccc12)c1ccc(Cl)cc1Cl : 35.9 µM
O=C(/C=C/c1cccc([N+](=O)[O-])c1)c1ccc([N+](=O)[O-])cc1 : > 100 µM
CCOC(=O)CC(NC(=O)c1[nH]cnc1/N=N/N(C)C)C(=O)OCC (configuration not stated) : > 100 µM
CSCSCC(CO)NC(=O)/C(C)=C\c1c(C)[nH]c(=O)[nH]c1=O (configuration not stated) : > 250 µM
COC(=O)C1=CC2C=CC(C1C(=O)OC)C1C(C(=O)OC)=C(C(=O)OC)C(C(=O)OC)=C(C(=O)OC)C21OC (configuration not stated) : > 100 µM
CC1CCC2CC(=O)OC([C@@H]3C(=O)O[C@@H](C4=CCCC4)C4C(C)CCC43)C12 (some centres not stated) : > 100 µM
COc1ccc(OC)c(/C=N/N=C(\N)NO)c1 : > 100 µM
Nc1c(Cl)ncnc1NCCCCCCCCCCCCNc1ncnc(Cl)c1N : 18.8 µM
COc1cc(C2(c3ncc[nH]3)SSSCC2O)ccc1O (configuration not stated) : > 39.6 µM
COc1cc(/C=N/N=C(\N)NO)c(Cl)cc1O : > 100 µM
Cc1cc(=O)n(-c2cc3cccccc-3n2)[nH]1 : 22.3 µM
Cc1cc(C)c(-c2noc(-c3ccc(Cl)cc3)c2C2=NCCCN2)c(C)c1 : > 100 µM
CN(/N=C\c1ccnc2ccccc12)c1ccc([N+](=O)[O-])cc1 : > 100 µM
Clc1cccc(-c2nnc(-c3nn(-c4ccccc4)c4nc5ccccc5nc34)o2)c1 : > 100 µM
CC(=O)[CH-]C(=O)c1ccccc1.CC(=O)[CH-]C(=O)c1ccccc1.CC(=O)[CH-]C(=O)c1ccccc1.[Nd+3].[OH3+] : > 100 µM
CC(=O)[C@H]1CCC2[C@@H]3CC=C4C[C@@H]([O-])CC[C@]4(C)C3CC[C@@]21C.CC(=O)[C@H]1CCC2[C@@H]3CC=C4C[C@@H]([O-])CC[C@]4(C)C3CC[C@@]21C.CC(=O)[CH-]C(=O)c1ccccc1.CC(=O)[CH-]C(=O)c1ccccc1.Cl.[Ti+4] (some centres not stated) : > 100 µM

src = PubChem BioAssay (NCI)
